test system: S. haemolyticus AVAH 88-3; experiment: MIC, agar dilution; format: cell-based; conditions: S. haemolyticus AVAH 88-3
Record form. Attribute: MIC. Fill in for each entry.

# example entries with known answers
| compound | MIC |
| --- | --- |
| CN(C)c1cc(NS(=O)(=O)c2ccc([N+](=O)[O-])cc2)c(O)c2c1CC1CC3C(N(C)C)C(O)=C(C(N)=O)C(=O)C3(O)C(O)=C1C2=O (stereo not drawn) | 2 µg/mL |
| CN(C)c1cc(NS(=O)(=O)c2cccs2)c(O)c2c1CC1CC3C(N(C)C)C(O)=C(C(N)=O)C(=O)C3(O)C(O)=C1C2=O (stereo not drawn) | 2 µg/mL |

# get_value(readout='MIC', item= CN(C)c1cc(NS(=O)(=O)c2ccccc2)c(O)c2c1CC1CC3C(N(C)C)C(O)=C(C(N)=O)C(=O)C3(O)C(O)=C1C2=O (stereo not drawn) )
4 µg/mL

Values compiled from patent USRE40086E1.
